This collection of values is drawn from patent US12662491B2.

- assay_target: Zcchc11 enzyme (Homo sapiens, UniProt Q5TAX3)
- Construct: made in house; host or cells: HEK293 cells (Zcchc11); E. coli Rosetta II (LIN28A)
- Sequence (Q5TAX3 212-1420): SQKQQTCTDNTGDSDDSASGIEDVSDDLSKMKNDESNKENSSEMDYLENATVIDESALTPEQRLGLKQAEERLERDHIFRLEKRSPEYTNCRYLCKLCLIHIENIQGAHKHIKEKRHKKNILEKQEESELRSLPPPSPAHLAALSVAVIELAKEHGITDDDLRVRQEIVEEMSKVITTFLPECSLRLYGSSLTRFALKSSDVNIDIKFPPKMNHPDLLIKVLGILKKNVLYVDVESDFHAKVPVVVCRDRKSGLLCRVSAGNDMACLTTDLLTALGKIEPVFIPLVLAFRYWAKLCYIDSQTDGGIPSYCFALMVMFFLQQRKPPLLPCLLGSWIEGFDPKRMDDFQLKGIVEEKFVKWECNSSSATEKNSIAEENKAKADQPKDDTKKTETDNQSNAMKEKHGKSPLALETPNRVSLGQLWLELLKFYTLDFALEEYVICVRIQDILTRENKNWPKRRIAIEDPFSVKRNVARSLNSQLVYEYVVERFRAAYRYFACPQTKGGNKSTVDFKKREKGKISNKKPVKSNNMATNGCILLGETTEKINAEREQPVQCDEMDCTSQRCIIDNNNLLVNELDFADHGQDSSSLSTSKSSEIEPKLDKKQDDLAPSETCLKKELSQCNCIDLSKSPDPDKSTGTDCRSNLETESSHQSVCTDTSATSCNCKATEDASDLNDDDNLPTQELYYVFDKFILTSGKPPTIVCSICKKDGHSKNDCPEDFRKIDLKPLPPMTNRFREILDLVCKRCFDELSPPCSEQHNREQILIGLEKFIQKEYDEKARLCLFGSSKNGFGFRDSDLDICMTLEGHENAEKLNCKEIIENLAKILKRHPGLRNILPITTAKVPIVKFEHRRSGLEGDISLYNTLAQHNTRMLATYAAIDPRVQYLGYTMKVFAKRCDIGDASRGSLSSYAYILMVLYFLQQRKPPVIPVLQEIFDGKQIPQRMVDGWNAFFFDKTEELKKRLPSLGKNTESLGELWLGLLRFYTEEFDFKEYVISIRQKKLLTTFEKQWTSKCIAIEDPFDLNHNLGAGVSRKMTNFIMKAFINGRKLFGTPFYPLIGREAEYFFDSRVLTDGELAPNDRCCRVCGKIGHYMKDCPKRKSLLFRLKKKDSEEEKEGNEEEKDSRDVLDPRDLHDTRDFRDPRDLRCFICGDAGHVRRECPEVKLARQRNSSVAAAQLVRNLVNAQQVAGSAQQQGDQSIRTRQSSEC
- protocol_text: TUTase assay (Zcchc11 assay, Lin28a-dependent polyuridylation of pre-let-7)
- Assay type: biochemical
- test_conditions: Lin28a-dependent Zcchc11 (Z11) TUTase activity; read-out: Potency Lin28a-dep Z11 IC50
endpoint: IC50

Summary for this compound, Cc1ccccc1OC[C@H]1CCCN1c1cc2c(cc1F)c(=O)c(C(=O)O)cn2-c1ccc(O)cc1 [Compound 105] : IC50 is 1000 to 10000 nM

Briefly, IC50 measured for Cc1cccnc1OC[C@H]1CCCN1c1c(F)cc2c(=O)c(C(=O)O)cn(-c3ccc(O)cc3)c2c1F [Compound 132] : ≤ 1000 nM

Data point: O=C(O)c1cn(-c2ccc(O)cc2F)c2cc(N3CCC[C@@H]3COc3ccncn3)c(F)cc2c1=O [Compound 136] ; IC50 = 1000 to 10000 nM

Entry CN(C)C1CN(c2ccc(-n3cc(C(=O)O)c(=O)c4cc(Cl)c(N5CCC[C@@]5(C)COc5ncccc5Cl)cc43)cn2)C1 (racemic) [Compound 314, formic acid] — recorded IC50 = ≤ 1000 nM

Entry Cc1nn(C)cc1-n1cc(C(=O)O)c(=O)c2cc(Cl)c(N3CCC[C@@H]3COc3ncccc3Cl)cc21 [Compound 168] , IC50 reported as ≤ 1000 nM

# IC50 of Cc1cccnc1OC[C@H]1CCCN1c1cc2c(cc1F)c(=O)c(C(=O)O)cn2-c1ccc(O)cc1F [Compound 101] = ≤ 1000 nM

Recorded IC50 (compound COCCn1cc(-n2cc(C(=O)O)c(=O)c3cc(C#N)c(N4CCC[C@@H]4COc4ncccc4Cl)cc32)cn1 [Compound 242] ): ≤ 1000 nM

----------
- assay_target: Zcchc11 enzyme (Homo sapiens, UniProt Q5TAX3)
- Construct: made in house; host or cells: HEK293 cells (Zcchc11); E. coli Rosetta II (LIN28A)
- protocol_text: TUTase assay (Zcchc11 assay, Lin28a-dependent polyuridylation of pre-let-7)
- Type: biochemical
- test_conditions: LIN28A 10 nM, Zcchc11 0.2 nM, 5′-fluorescein pre-let-7 miRNA 2 nM, UTP 5 uM, room temperature, 30 minutes pre-incubation; read-out: Potency Lin28a-dep Z11 IC50
endpoint: IC50

Would you please look over these solved cases?
IC50 reading for CC(=O)N1CC(n2cc(C(=O)O)c(=O)c3cc(Cl)c(N4CCC[C@@H]4COc4ncccc4C)cc32)C1 [Example 36] : 1 to 10 µM

Value of measured IC50 for the entry CC1CCN(c2cc3c(cc2Cl)c(=O)c(C(=O)O)cn3-c2ccnc(N)c2)[C@H]1COc1nc(N(C)C)ccc1Cl (stereo partly shown) [Example 65] : ≤ 1 µM

GET /value?item= COc1ccc(Cl)c(OC[C@H]2CC3CC3N2c2cc3c(cc2F)c(=O)c(C(=O)O)cn3-c2ccc(N3CC(N(C)C)C3)nc2)n1 (stereo partly shown) [Example 72] &field=IC50 returns ≤ 1 µM

Lab note: next compound to report on.
Record COc1ccc(Cl)c(OCC2N(c3cc4c(cc3Cl)c(=O)c(C(=O)O)cn4-c3cc(N)cnn3)CCC2(C)C)n1 (stereo not shown) [Example 67] . Reported IC50: ≤ 1 µM

----------
This section presents compounds with their documented IC50 values.
- assay_target: Zcchc11 enzyme (Homo sapiens, UniProt Q5TAX3)
- Construct: made in house; host or cells: HEK293 cells (Zcchc11); E. coli Rosetta II (LIN28A)
- protocol_text: TUTase assay (Zcchc11 assay, Lin28a-dependent polyuridylation of pre-let-7)
- Format: biochemical
- test_conditions: Lin28a-dependent Zcchc11 (Z11) TUTase assay; read-out: Potency Lin28a-dep Z11 IC50

The measured IC50 associated with COCCN1CC2(CC(n3cc(C(=O)O)c(=O)c4cc(Cl)c(N5CCC[C@@H]5COc5ncccc5Cl)cc43)C2)C1 [Example 482] reads 1000 to 10000 nM

Given item CN1CCC(n2cc(C(=O)O)c(=O)c3cc(Cl)c(N4CCC[C@@H]4COc4ncccc4Cl)cc32)C1 (some centres unmarked) [Example 461] , the value recorded as its IC50 is 1000 to 10000 nM

Data point: Cc1cc(-n2cc(C(=O)O)c(=O)c3cc(F)c(N4CCC[C@@H]4COc4ccccn4)cc32)ccc1O [Example 395] ; IC50 = 1000 to 10000 nM

What the record says about Cc1cccnc1OC[C@H]1CCCN1c1cc2c(cc1Cl)c(=O)c(C(=O)O)cn2C1CNC1 [Example 366] : IC50 is 1000 to 10000 nM

Per the record, Cn1cncc1-n1cc(C(=O)O)c(=O)c2cc(Cl)c(N3CCC[C@@H]3COc3ncccc3Cl)cc21 [Example 567] has IC50 of ≤ 1000 nM

Measured IC50, Cc1cccnc1OC[C@H]1CCCN1c1cc2c(cc1Cl)c(=O)c(C(=O)O)cn2C1(C)CCOCC1 [Example 459] : 1000 to 10000 nM

***
Lookup result for CN(C)C1CN(c2ccc(-n3cc(C(=O)O)c(=O)c4cc(Cl)c(N5Cc6cccnc6[C@@H]5COc5ncccc5Cl)cc43)cn2)C1 [Example 597] ; measured IC50: ≤ 1000 nM

The measured IC50 associated with CN(C)C1CN(c2ccc(-n3cc(C(=O)O)c(=O)c4cc(Cl)c(N5CCC[C@@H]5COC5CCOCC5)cc43)cn2)C1 [Example 595] reads 1000 to 10000 nM

Sure, the documented IC50 for CN(C)C1CN(c2ccc(-n3cc(C(=O)O)c(=O)c4cc(Cl)c(N5CCC[C@]5(C)COc5ncccc5Cl)cc43)cn2)C1 [Example 627] is ≤ 1000 nM

Consider CN(C)[C@H]1CCN(c2ccc(-n3cc(C(=O)O)c(=O)c4cc(C#N)c(N5CCC[C@@H]5COc5ncccc5Cl)cc43)cn2)C1 [Example 562] . Its measured IC50 is ≤ 1000 nM

Record O=C(O)c1cn(C2CC(O)C2)c2cc(N3CCC[C@@H]3COc3ccccn3)c(F)cc2c1=O (some centres unmarked) [Example 452] , field IC50: 1000 to 10000 nM

----------
- assay_target: Zcchc11 enzyme (Homo sapiens)
- Construct: made in house; host or cells: HEK293 cells (Zcchc11); E. coli Rosetta II (LIN28A)
- protocol_text: TUTase assay (Zcchc11 assay, Lin28a-dependent polyuridylation of pre-let-7)
- Type: biochemical
- test_conditions: Lin28a-dependent Zcchc11 (Z11) TUTase assay; read-out: Potency Lin28a-dep Z11 IC50
pIC50: −log10 of the molar value.
endpoint: pIC50

Tested on Zcchc11 enzyme (Homo sapiens), the item O=C(O)c1cn(-c2cnccn2)c2cc(N3C[C@@H](F)C[C@H]3COc3ncccc3Cl)c(Cl)cc2c1=O [Example 519] showed pIC50 equal to ≥ 6.00

Observed pIC50, Zcchc11 enzyme (Homo sapiens), COc1ccc(-n2cc(C(=O)O)c(=O)c3cc(F)c(N4CCC[C@@H]4COc4ccccn4)cc32)cc1 : ≥ 6.00

Observed pIC50 on Zcchc11 enzyme (Homo sapiens), entry O=C(O)c1cn(-c2cccc(F)c2F)c2cc(N3CCC[C@@H]3COc3ccccn3)c(F)cc2c1=O , equals 5.00 to 6.00

// switching to the query compound
Summary: CN(C)CCn1cc(-n2cc(C(=O)O)c(=O)c3cc(Cl)c(N4CCC[C@@H]4COc4ncccc4Cl)cc32)cn1 , Zcchc11 enzyme (Homo sapiens), pIC50 = ≥ 6.00

----------
Known pIC50 of a selection of compounds
- assay_target: Zcchc11 enzyme (Homo sapiens, UniProt Q5TAX3)
- Construct: made in house; host or cells: HEK293 cells (Zcchc11); E. coli Rosetta II (LIN28A)
- protocol_text: TUTase assay (Zcchc11 assay, Lin28a-dependent polyuridylation of pre-let-7)
- Type: biochemical
- test_conditions: Lin28a-dependent Zcchc11 (Z11) TUTase assay; read-out: Potency Lin28a-dep Z11 IC50
pIC50: −log10 of the molar value.

Previously resolved entries follow.
The recorded pIC50 for entry NC1CC(n2cc(C(=O)O)c(=O)c3cc(Cl)c(N4CCC[C@@H]4COc4ncccc4Cl)cc32)C1 (some centres unmarked) equals 5.00 to 6.00

pIC50 reading for O=C(O)c1cn(-c2ccc(N3CCC3=O)nc2)c2nc(N3CCC[C@@H]3COc3ncccc3Cl)c(Cl)cc2c1=O : ≥ 6.00

Quick note, pIC50 for COc1ccc(C2C[C@H](COc3ncccc3Cl)N(c3cc4c(cc3Cl)c(=O)c(C(=O)O)cn4-c3ccc(N4CC(N(C)C)C4)nc3)C2)cn1 (some centres unmarked) landed at ≥ 6.00

***
Record summary for O=C(O)c1cn(Cc2ccncc2)c2cc(N3CCC[C@@H]3COc3ncccc3Cl)c(Cl)cc2c1=O : reported pIC50 = 5.00 to 6.00

GET /value?item= Cc1cccnc1OC[C@H]1CCCN1c1cc2c(cc1Cl)c(=O)c(C(=O)O)cn2C1CN(C)C1 &field=pIC50 returns 5.00 to 6.00
